Test system: CAKI-1
Test: NCI tumour cell line growth inhibition, 48 h
Active and inactive are the calls of the source. Cut-off read from the data, not from the text of the source: active = GI50 up to about 1.1 µM and inactive = higher.
MEASUREMENT LABEL: GI50

# molecule `Cc1cccc(C)c1NC(=S)NC=C1C(=O)c2ccccc2C1=O` ; its GI50 = 17.8 µM (inactive)

The recorded GI50 for COc1ccc(C(C2C(=O)N(C)C(=O)N(C)C2=O)C(F)(F)C(=O)N(C)C)cc1 (stereo not given) is > 100 µM (inactive)

Summary for this molecule, `O=C(O)c1oc(C(=O)O)c(C(=O)O)c1C(=O)O` : GI50 is > 100 µM (inactive)

Record `C=C[C@H]1CN2CCc3c([nH]c4c([C@@H]5CCCN5C)c(O)ccc34)[C@@H]2C[C@@H]1C[C@H]1c2[nH]c3ccccc3c2CCN1C` . Reported GI50: 1.71 µM (inactive)

Lab book: GI50 of Nc1ncc(/C=N/O)c(NCC2(CO)CC(CCc3ccccc3)C2)n1 (stereo not given) noted as 18.4 µM (inactive)

The value of GI50 measured for the molecule `O=Cc1ccc(-c2cccs2)s1` turned out to be 13.8 µM (inactive)

For this molecule ( CC12CCC(C(Nc3cc(C(F)(F)F)cc(C(F)(F)F)c3)C1=O)C2(C)C (stereo not given) ), measured GI50 is > 100 µM (inactive)

Reported GI50 of `CC[C@@]12C=CC(=S)N(CCSc3ccccc3)[C@@H]1c1c(n(S(=O)(=O)c3ccc(OC)cc3)c3ccccc13)CC2` : > 100 µM (inactive)

The molecule identified as Cc1ccc2nc(NC(=O)C(=O)C(C#N)c3ccc(Cl)cc3)sc2c1 (stereo not given) registered its GI50 at > 50 µM (inactive)

Memo: `S=C(Cc1ccc2c(c1)Sc1ccccc1O2)N1CCOCC1` , reported GI50: 38.9 µM (inactive)

###

System: UO-31
Experiment: NCI tumour cell line growth inhibition, 48 h
Calls of active or inactive are those of the source. No stated cut-off is given here; in the data, active = GI50 up to about 1.1 µM and inactive = higher. Non-standard residues stand in square brackets, D forms with d. Residues, ends and D or L forms follow the SMILES beside them. *: point of attachment. Cbz = O=C(OCc1ccccc1)*; Boc = CC(C)(C)OC(=O)*; Aib = CC(C)(N)C(=O)O; OBn = c1ccc(CO*)cc1; OtBu = CC(C)(C)O*; βAla = NCCC(=O)O
Permitted responses: yes (1) for active, no (0) for inactive

Look up the recorded call for C/C=C/C1=C(Cl)C(=O)[C@@H](Cl)[C@@]1(O)C(=O)OC [(+)-CRYPTOSPORIPSIN] in this test.
no (0)

Any idea what this test logged for `COC(=O)[C@@H](NS(=O)(=O)CC12CCC(CC1)C2(C)C)C(C)(C)C` ?
no (0)

Fill in: this test's call for `O=CCOCc1cc2c(cc1Br)OCO2` is ___
no (0)

How did this test come out for `Cc1ccc(-c2cc(-c3ccc(Cl)cc3)nc(/N=C3\C(=O)N(CN4CCOCC4)c4ccc(Cl)cc43)n2)cc1` ?
no (0)

Please state the recorded outcome for this molecule: N#CC1(c2nc3ccccc3o2)C(=O)C(=O)N(C2C3CC4CC(C3)CC2C4)C(=O)C1=O (stereo not given)
no (0)

Recorded test call requested for O=c1c2ccccc2nc(-c2ccc(Br)cc2)n1NC1OC(CO)C(O)C(O)C1O (stereo not given)
no (0)

Called result for `CCOc1ccc(NC(=O)C(=O)CC(=O)c2c(C)[n+]([O-])c3ccccc3[n+]2[O-])cc1`
no (0)

Per the assay record, what outcome was assigned to Cc1ccc2nc(NC(=O)C(=O)C(C#N)c3ccc(Cl)cc3)sc2c1 (stereo not given) ?
no (0)

Just curious, what result did `O=C1c2ccccc2C(=O)c2c1ccc(O)c2O` get here?
no (0)

Returns: the outcome recorded for `NCCn1ccc(NC(c2ccccc2)(c2ccccc2)c2ccccc2)nc1=O` in this assay.
no (0)

Give the logged outcome of this assay for the following molecule: `CC(C)COC(=O)c1ccc(/N=C\c2ccc(/C=N/c3ccc(C(=O)OCC(C)C)cc3)cc2)cc1`
no (0)

Per the assay record, what outcome was assigned to `S=P1(N2CCCCC2)Oc2ccc3ccccc3c2-c2c(ccc3ccccc23)O1` ?
no (0)

Could you please tell me the result logged for `C(=C\c1csnn1)/c1cccnc1` in this assay?
no (0)

What did the test return for `Cc1nc2ccc(S(=O)(=O)Nc3nccs3)cc2c(=O)n1NS(=O)(=O)c1nccs1` ?
no (0)

Hi, do you know how `COC(=O)c1ccc(NC(=O)c2cc(OC)c(OC)c(OC)c2)cc1` came out in this test?
no (0)

GET /call?item= CCOC(=O)C1S/C(=N\c2ccccc2)N=C1C (stereo not given) returns the recorded outcome of this test.
no (0)

Identify the outcome logged in this assay for the molecule shown: `O=C1Cc2ccccc2N1/N=C\c1ccc(O)cc1`
no (0)

What classification did CC(C)(C)OC(=O)NC(Cc1ccc(OCc2ccccc2)cc1)C(=O)NC(COCc1ccccc1)C(=O)Oc1c(Cl)c(Cl)c(Cl)c(Cl)c1Cl (stereo not given) end up with in this test?
no (0)

Could you please tell me the result logged for `CCOC(=O)/C(=C/c1ccc[nH]1)P(=O)(OCC)OCC` in this assay?
no (0)

What call does the record list for O=C(O)CC(Cc1ccccc1Cl)C(=O)O (stereo not given) ?
no (0)

Test call, this molecule: `CC(C)OP(=O)(CN(C)/C(F)=N\C(F)(F)F)OC(C)C`
no (0)

Query: recorded result category for `CCCCC[C@H]1CC=CC(=O)O1` in this test
no (0)

What outcome does the record of this test show for O=[N+]([O-])c1cccnc1NCC1(CO)CC(Cc2ccccc2)C1 (stereo not given) ?
no (0)

// param item: `COC[n+]1cc2cc(OC)c(OC)cc2c2ccc3cc(OC)c(OC)cc3c21` ; yields the recorded call
no (0)

Record request — test call for `C[C@]12CC/C(=N\O)C=C1CC[C@@H]1[C@@H]2CC[C@]2(C)C(=N/O)/C(=C/c3ccc([N+](=O)[O-])cc3)C[C@@H]12`
no (0)

For CCC1=C(C(C)=O)[C@@H]2CCCCC(C(=O)OC)[C@@H]2C1=O (stereo not given in full) , which call appears in the assay record?
no (0)

For `C/C(=N\O)c1ccc2cc(Br)c3ccccc3c2c1` , which call appears in the assay record?
no (0)

Could you please tell me the result logged for `CCOC(=O)C(=O)C=P(c1ccccc1)(c1ccccc1)c1ccccc1` in this assay?
no (0)

Entry CC(C)(C)OC(=O)CC(NC(=O)OC(C)(C)C)C(=O)NC(CCCCNC(=O)OCc1ccccc1)C(=O)NC(C)(C)C(=O)NCCC(=O)OCc1ccccc1 (stereo not given) (Boc-D(OtBu)K(Cbz)[Aib][βAla]-OBn; configuration not given here) : call = ?
no (0)

I would be grateful if you could indicate the recorded call for `C=CC[N+]12CN3CN(CN(C3)C1)C2` .
no (0)

Would you mind telling me which call this test gave `O=[N+]([O-])c1cccc2c(/N=N/c3ccc4ccccc4c3O)c(O)cc(S(=O)(=O)O)c12` ?
no (0)

State the result this test recorded for `COc1ccc(CSc2nc3ccccc3nc2-c2cccs2)cc1` .
no (0)

Hello, I am checking results. What call was entered for `COC(=O)c1ccccc1/C=C1\Cc2ccc3c(c2C1=O)CCCC3` ?
no (0)

Which outcome was assigned to Cc1ccc2nc3ccccc3c(C3C4C(=O)N(c5ccc(F)cc5)C(=O)C4ON3C(C(N)=O)c3ccccc3)c2c1 (stereo not given) in this test?
no (0)

// return assay outcome for `CCOC(=O)CC[C@H](NC(=O)c1nc[nH]c1/N=N/N(C)C)C(=O)OCC`
no (0)

For COc1cc([C@@H]2c3cc4c(cc3[C@@H](OC(=O)c3ccccc3)C3COC(=O)[C@@H]32)OCO4)cc(OC)c1O (stereo not given in full) , which call appears in the assay record?
yes (1)

Recorded test call requested for `O=CNCNCCO`
no (0)

Tell me the assay call for O=C1c2ccccc2C(=O)N1CC1(C(=O)O)NCCS1(=O)=O (stereo not given) please.
no (0)

Dear colleague, could you share the recorded outcome for `Cc1cccc(C)c1NC(=S)NC=C1C(=O)c2ccccc2C1=O` when you have a moment?
no (0)

# lookup: test call for C=C1CC(C)(COc2ccc3c(C)c(C)c(=O)oc3c2C)OC1=O (stereo not given)
no (0)

###

Tested on: COLO 205
Assay: NCI tumour cell line growth inhibition, 48 h
Activity calls are given as the source filed them. Rule as the data show it: active = GI50 up to about 1.1 µM and inactive = higher.
Provide the reported GI50 of each item.

Record CCCCCCCCCCC(O)CCCCCCC(=O)O (stereo not given) has COLO 205 GI50 equal to 15.7 µM (inactive)

GI50 of CCOc1cc2c(cc1O)CC[C@@H]1[C@@H]2CC[C@]2(C)C(N)CC[C@@H]12 (stereo not given in full) , assay on COLO 205, is 4.49 µM (inactive)

Entry `COC(=O)Cc1c([C@H]2[C@H](CC(=O)OC)c3ccccc3N2C(=O)C(F)(F)F)[nH]c2ccccc12` under COLO 205 had GI50 of 18.2 µM (inactive)

Bench note, COLO 205: `CC1=NN2C(=N)/C(=C/c3ccc(F)cc3)C(=O)N=C2S1` , GI50 reads > 100 µM (inactive)

Assay COLO 205, sample `CSc1c(C#N)c(O)n(-c2ccc(C)cc2)c(=O)c1C(C)=O` , GI50 read: > 100 µM (inactive)

Entry `Fc1ccc(NC(=S)SCc2ccc3c(c2)OCO3)cc1F` : GI50 on COLO 205 = 18.9 µM (inactive)

Record `CN(C)CCNc1ccc2nnn3c4ccccc4c(=O)c1c23` has COLO 205 GI50 equal to 1.34 µM (inactive)

Per the reported COLO 205 data, COC(=O)/C1=C/C=C\C[C@@]2(C)CC(c3ccoc3)OC(=O)[C@@H]2CC[C@H]1C (stereo not given in full) has GI50 of > 25 µM (inactive)

GI50 of `COC(=O)[C@@H](NS(=O)(=O)CC12CCC(CC1)C2(C)C)C(C)(C)C` , assay on COLO 205, is > 100 µM (inactive)

Record COc1ccc(-c2csc3c2[N+]2(C)C=CC=C2C3N2CCCC2)cc1 (stereo not given) has COLO 205 GI50 equal to 13.6 µM (inactive)

Lab note: molecule `COc1ccc(/N=N/C(=N/NC(=O)c2cc(Cl)ccc2C(=O)c2ccccc2)c2ccc(N(CCC#N)CCC#N)cc2C)cc1` tested on COLO 205; recorded GI50 was 17.6 µM (inactive)

Record `O=C1N=NC(=O)N1c1cc(C(F)(F)F)cc(C(F)(F)F)c1` ; system COLO 205; GI50 = 1.85 µM (inactive)

Log: COLO 205, molecule CC(C)(O)C1CC[C@]2(C)CC[C@]3(C)[C@H](CC[C@@H]4[C@@]5(C)CC[C@H](O)C(C)(C)[C@@H]5CC[C@]43C)[C@@H]12 (stereo not given in full) , GI50 = 29.7 µM (inactive)

The molecule O=C1NC2(CCCCC2)C2CCCCC(O)C12 (stereo not given) , when measured on COLO 205, yielded GI50 of > 100 µM (inactive)

`CCCCCCCCCCCC[C@@H](O)[C@H]1CC[C@H]([C@H](O)CC[C@H](O)[C@@H]2CC[C@@H](CCCCCCCC3=C[C@H](C)OC3=O)O2)O1` tested on COLO 205 gave GI50: > 50 µM (inactive)

Entry `CCOC(=O)c1csc(NC(=O)CCN2CCCCC2)n1` : GI50 on COLO 205 = > 100 µM (inactive)

Summary: `COc1ccc(/C=N/NC(=O)CSc2nc(-c3ccccc3)c(-c3ccccc3)[nH]2)cc1OC` , COLO 205, GI50 = 21.2 µM (inactive)

GI50 value, target or system COLO 205, for `O=C(O)CCCc1nc2c(n1-c1ccccc1)C(=O)c1ccccc1C2=O` : 52.5 µM (inactive)

Measured GI50 for this entry `CC(C)C(=O)/C=C/c1ccc(Br)cc1` on COLO 205: 23.4 µM (inactive)

Measured on COLO 205, `CN(C)C(=O)Oc1ccc(C(=S)Nc2ccccc2)cc1Br` has a documented GI50 of 24.2 µM (inactive)
